# Relative Enz. Act. listing for each entry below
- TESTED SYSTEM: Pichia alcohol oxidase (Komagataella phaffii, UniProt F2QY27)
- Sequence (F2QY27 2-663 limits assumed): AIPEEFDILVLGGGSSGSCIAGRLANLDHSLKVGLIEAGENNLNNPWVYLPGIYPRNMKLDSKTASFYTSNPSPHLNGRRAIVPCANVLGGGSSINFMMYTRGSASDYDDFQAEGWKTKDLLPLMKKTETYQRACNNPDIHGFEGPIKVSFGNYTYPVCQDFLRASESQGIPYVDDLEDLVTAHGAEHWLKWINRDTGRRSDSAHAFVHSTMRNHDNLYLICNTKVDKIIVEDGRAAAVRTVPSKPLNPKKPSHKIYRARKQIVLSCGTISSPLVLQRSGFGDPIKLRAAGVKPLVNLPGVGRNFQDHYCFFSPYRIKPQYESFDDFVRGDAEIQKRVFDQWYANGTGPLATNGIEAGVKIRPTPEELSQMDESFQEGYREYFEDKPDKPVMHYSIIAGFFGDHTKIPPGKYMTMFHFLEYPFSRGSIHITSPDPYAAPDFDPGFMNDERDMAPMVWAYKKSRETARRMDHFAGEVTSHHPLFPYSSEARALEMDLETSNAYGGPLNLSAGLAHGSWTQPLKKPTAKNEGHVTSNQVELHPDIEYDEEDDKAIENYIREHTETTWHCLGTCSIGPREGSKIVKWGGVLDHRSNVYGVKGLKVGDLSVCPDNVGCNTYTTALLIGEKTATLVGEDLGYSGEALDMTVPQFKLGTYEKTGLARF
- TEST CONDITIONS: crude enzyme saturated with salt crystals; assayed 1-2 minutes later

Example molecules with recorded Relative Enz. Act.:
MOLECULE	TESTED SYSTEM	Relative Enz. Act.
[Cl-].[Na+] [NaCl]	Pichia alcohol oxidase (Komagataella phaffii, UniProt F2QY27)	1
[Cl-].[K+] [KCl]	Pichia alcohol oxidase (Komagataella phaffii, UniProt F2QY27)	2
[Cl-].[Li+] [LiCl]	Pichia alcohol oxidase (Komagataella phaffii, UniProt F2QY27)	0
CC(=O)O [NaAc]	Pichia alcohol oxidase (Komagataella phaffii, UniProt F2QY27)	4
O=P([O-])(O)O.[K+] [KH2 PO4]	Pichia alcohol oxidase (Komagataella phaffii, UniProt F2QY27)	0

Request: Any idea what Relative Enz. Act. came out for O=P([O-])([O-])O.[Na+].[Na+] [Na2 HPO4] on Pichia alcohol oxidase (Komagataella phaffii, UniProt F2QY27)?
Result: 4

Request: Any idea what Relative Enz. Act. came out for [Cl-].[Cl-].[Mg+2] [MgCl2] on Pichia alcohol oxidase (Komagataella phaffii, UniProt F2QY27)?
Result: 0

Request: Any idea what Relative Enz. Act. came out for O=P([O-])(O)O.[Na+] [NaH2 PO4] on Pichia alcohol oxidase (Komagataella phaffii, UniProt F2QY27)?
Result: 0

* * *

- TESTED SYSTEM: purified Pichia alcohol oxidase (Komagataella phaffii, UniProt F2QY27)
- Construct: saturated solution of purified Pichia alcohol oxidase; endogenous in cells
- ASSAY COMMENT: biochemical
- TEST CONDITIONS: estimated from 1/V vs 1/[S] plots; pH 7.5; read-out: binding constant for methanol substrate, KS
READOUT: pKd
pKd here is simply -log10 of the concentration when that concentration is written in mol/L.

Request: Dear colleague, I am looking for the recorded pKd of the following molecule: CO
Result: 3.22
